All figures here come from patent US8557872B2.

# assay.procedure: PK study in rats, single oral administration
# Assay type: in vivo, rat
# Set-up: concentration or dose not given beside the values
# test.settings: rat, single oral administration, plasma, Table 2
Please enter label 1 where AUC is greater than or equal to 6000 ng·h/mL, and label 0 where it is lower.

compound: C=Cc1cc(CNC(=O)/C=C/c2ccc(C(F)(F)F)cc2NC(C)C)cc(F)c1NS(C)(=O)=O [Example 54]
assigned.label: label 0
--
compound: CCCc1cc(C(F)(F)F)ccc1/C=C/C(=O)NCc1cc(F)c(NS(C)(=O)=O)c(F)c1 [Example 22]
assigned.label: label 1
--
compound: CCCOc1cc(C(F)(F)F)ccc1/C=C/C(=O)N[C@H](C)c1cc(F)c(NS(C)(=O)=O)c(F)c1 [Example 5]
assigned.label: label 1
--
compound: CCCNc1cc(C(F)(F)F)ccc1/C=C/C(=O)NCc1cc(F)c(NS(C)(=O)=O)c(F)c1 [Example 2]
assigned.label: label 1
--
compound: CCCc1cc(C(F)(F)F)ccc1/C=C/C(=O)N[C@H](C)c1cc(F)c(NS(C)(=O)=O)c(F)c1 [Example 21]
assigned.label: label 1
--
compound: CCCNc1cc(C(F)(F)F)ccc1/C=C/C(=O)N[C@H](C)c1cc(F)c(NS(C)(=O)=O)c(F)c1 [Example 1]
assigned.label: label 0
--
compound: CCCCc1cc(C(F)(F)F)ccc1/C=C/C(=O)N[C@H](C)c1cc(F)c(NS(C)(=O)=O)c(F)c1 [Example 24]
assigned.label: label 0

* * *

Cmax values, listed per item
# assay.procedure: PK study in rats, single oral administration
# Format: in vivo, rat
# test.settings: rat, single oral administration, plasma, Table 3, detection limit 0.100 mcg/ml
# Protocol: Pharmacokinetics of compounds in rats were analyzed using the following experiment. Rats were fasted overnight prior to administration and until approximately 4 hours after administration. Rats were given a single oral administration of compound at same dose. Administration volume was 10 ml/kg. Blood samples were collected from the retro-orbital sinus at various times over the following 7 hrs. […] The plasma samples were analyzed using a reverse phase high-performance chromatography (HPLC) method.
measured.metric: Cmax

compound: C=Cc1cc(CNC(=O)/C=C/c2ccc(C(C)(C)C)cc2NC(C)C)cc(F)c1NS(C)(=O)=O [Comp Cpd C, reference compound]
measured.metric: Cmax
meas.value: < 100 ng/mL
--
compound: CCCc1cc(C(C)(C)C)ccc1/C=C/C(=O)N[C@H](C)c1cc(F)c(NS(C)(=O)=O)c(F)c1 [Comp Cpd E, reference compound]
measured.metric: Cmax
meas.value: < 100 ng/mL
--
compound: C=Cc1cc(CNC(=O)/C=C/c2ccc(C(C)(C)C)cc2)cc(F)c1NS(C)(=O)=O [Comp Cpd A, reference compound]
measured.metric: Cmax
meas.value: < 100 ng/mL
--
compound: CC(C)(C)c1ccc(/C=C/C(=O)NCc2cc(F)c(NS(C)(=O)=O)c(F)c2)cc1 [Comp Cpd B, reference compound]
measured.metric: Cmax
meas.value: 69 ng/mL
--
compound: CCCNc1cc(C(C)(C)C)ccc1/C=C/C(=O)NCc1cc(F)c(NS(C)(=O)=O)c(F)c1 [Comp Cpd D, reference compound]
measured.metric: Cmax
meas.value: < 100 ng/mL

* * *

# assay.procedure: PK study in rats, single oral administration
# Format: in vivo, rat
# test.settings: rat, single oral administration, plasma, Table 4, detection limit 0.100 mcg/ml
Reported Cmax values follow for various compounds

compound: C=Cc1cc(CNC(=O)/C=C/c2ccc(C(F)(F)F)cc2)ccc1NS(C)(=O)=O [Comp Cpd F, reference compound]
inequality.symbol: =
Cmax (ng/mL): 5000
//
compound: C[C@@H](NC(=O)/C=C/c1ccc(C(F)(F)F)cc1)c1cc(F)c(NS(C)(=O)=O)c(F)c1 [Comp Cpd G, reference compound]
inequality.symbol: <
Cmax (ng/mL): 100
